test system: Canis familiaris; experiment: AUC in Beagle dog at 0.2 umol/kg, iv; type: ADME, organism-based, Canis lupus familiaris, Plasma; conditions: in vivo
EXPERIMENTAL_READOUT: AUC
Your reply should be a number followed by the unit it is expressed in.

Return reported AUC; argument: CN[C@H]1CCN(C(=O)c2ccc(Nc3ncc(F)c(-c4cnc(C)n4C(C)C)n3)cc2)C1 0.18 µM·h

* * *

assay: Stability in dog plasma; type: ADME, cell-free, Canis lupus familiaris; details: read-out: Stability
EXPERIMENTAL_READOUT: half-life

Return reported half-life; argument: CN[C@H]1CCN(C(=O)c2ccc(Nc3ncc(F)c(-c4cnc(C)n4C(C)C)n3)cc2)C1 > 18 h
